We begin with a simple list: items and their reported Solubility.
conditions: in water; synthesized salts (and cannabinol parent)
Counter-ions that a name gives are not always drawn.
metric: Solubility

1) CCCCCc1cc(O)c2c(c1)OC(C)(C)C1CCC(C)=CC21 (centres unmarked) [drawing 25/drawing 29 1:1, Agmatine Salt with THC (1:1)]    0.2 mg/mL
2) CCCCCc1cc(O)c2c(c1)OC(C)(C)C1CCC(C)=CC21 (centres unmarked) [drawing 25/drawing 26 1:1, Choline Salt with THC (1:1)]    3 mg/mL
3) CCCCCc1cc(O)c2c(c1)OC(C)(C)c1ccc(C)cc1-2 [drawing 39/Et4N^+ 1:1]    0.2 mg/mL
4) CCCCCc1cc(O)c2c(c1)OC(C)(C)c1ccc(C)cc1-2 [drawing 39/drawing 41 1:1, Acetylcholine Salt with Cannabinol (1:1)]    1 mg/mL
5) CCCc1cc(O)c2c(c1)OC(C)(C)C1CCC(C)=CC21 (centres unmarked) [drawing 37/n^−Bu4N^+ 1:1]    0.2 mg/mL
6) CCCCCc1cc(O)c2c(c1)OC(C)(C)C1CCC(C)=CC21 [drawing 25/drawing 27 1:1, L-Lysine Salt with THC (1:1)]    2 mg/mL
7) CCCc1cc(O)c2c(c1)OC(C)(C)C1CCC(C)=CC21 (centres unmarked) [drawing 37/drawing 38 1:1]    7 mg/mL
